The origin of these recorded values is PubChem BioAssay AID1159580.

# PROCEDURE SUMMARY: chemical genetic growth profiling, strain panel (AID 1159580);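 also: tested at 20 µM; growth read once vehicle control cultures reached saturation at 30 °C; lower values mean less growth of the strain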
# CONDITION PARAMETERS: S. cerevisiae deletion strains, growth OD, locus YER002W, strain NOP16
The campaign covered roughly 5,500 compounds. About 2,000 (36%) were called active. Not shown: some 18% with an inconclusive outcome. Rule as the data show it: active = normalized growth mostly below about 0.91 (no sharp cut-off); inconclusive = no clear call, values can overlap the other calls; inactive = mostly above about 0.92. Some of the results follow.
Possible outcomes: active, inactive

>>> assigned_category("O=C(O)c1cc2cc(F)ccc2[nH]1")
"inactive"
>>> assigned_category("CCn1cc(C(=O)O)c(=O)c2cc(F)c(N3CCNC(C)C3)c(F)c21 (stereo unspecified)")
"inactive"
>>> assigned_category("Nc1nc(OCc2ccccc2)c2[nH]cnc2n1")
"inactive"
>>> assigned_category("N[C@H]1CONC1=O")
"inactive"
>>> assigned_category("c1ccc(CCCN2CCN(CCOC(c3ccccc3)c3ccccc3)CC2)cc1")
"inactive"
>>> assigned_category("NCCCS(=O)(=O)O")
"inactive"
>>> assigned_category("OC(CN1CCN(c2cccc(Cl)c2)CC1)C(c1ccccc1)c1ccccc1 (stereo unspecified)")
"active"
>>> assigned_category("Cc1ccccc1C(OCCN(C)C)c1ccccc1 (stereo unspecified)")
"inactive"
>>> assigned_category("COC(=O)C1C(O)CCC2CN3CCc4c([nH]c5ccccc45)C3CC21 (stereo unspecified)")
"inactive"
>>> assigned_category("CC[C@@H]1C=C/C=C/C[C@H](C)[C@@H](O)[C@](C)(O)C(=O)[C@H](C)[C@@H](O)[C@H](C)C(=O)[C@H](C)[C@@H](O)[C@H](C)/C=C/C(=O)O[C@H]2[C@@H](C)[C@@H](CC1)O[C@@]1(CC[C@@H](C)[C@@H](CC(C)O)O1)[C@@H]2C (stereo partly specified)")
"inactive"
>>> assigned_category("O=C1NC(=O)C(c2ccccc2)(c2ccccc2)N1")
"inactive"
